Run Description: protein stability index of a GFP-peptide fusion (yeast GPS) (PSI 1-4); higher = more stable; sorted into four equal gates, so the index is relative within each strain
Test Conditions: doa10∆
Experimental Readout: protein stability index
I'd appreciate a reply containing only the number, no unit.

(Q) Can you share its protein stability index? I mean this sequence: STRASTVPNLPTTMVTN [ISW2]
(A) 1.92

(Q) Which value of protein stability index has been reported for TPDANLISKPAKKNNFI [UBP6] in the records?
(A) 3.12

(Q) Could you share which protein stability index value was measured for GCGTVKRFNIGADPNYR [RPR2] ?
(A) 3.15

(Q) // protein stability index lookup, key: AGGPDMTTPQNISSSQQ [DSN1]
(A) 2.83
